B1: library; a variant is named by its letters at N, in order (parent)
chain: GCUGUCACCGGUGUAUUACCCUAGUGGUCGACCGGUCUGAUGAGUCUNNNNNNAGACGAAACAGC

# Variants of: B1
# procedure_text: normalized RNA/DNA level with ligand (relative to sTRSVctl = 100) (log10 (% of sTRSVctl)); ligand: hypoxanthine (xanthine aptamer); higher = less ribozyme self-cleavage, higher mRNA level
# condition_set: ligand concentration (+) RNA-Seq: 5 mM, HEK293T, reporter: mCherry (pCS4076), ligand present: yes
readout_name: normalized RNA/DNA level with ligand (log10)
Simply state the number, no unit and no words.

Use the examples below as a reference point.
- mutation_spec: "GAUGGG"
  recorded_result: 1.81
- mutation_spec: "CAUUGG"
  recorded_result: 1.91
- mutation_spec: "UAGUGG"
  recorded_result: 1.86
- mutation_spec: "ACUAGC"
  recorded_result: 1.88
- mutation_spec: "UGAAUA"
  recorded_result: 1.93

# get_value(readout='normalized RNA/DNA level with ligand (log10)', item= `GAUGUA` )
1.89

Do the same for `GGGUCC` please
2

Do the same for `UUUGGC` please
1.99

Do the same for `UCUGCC` please
2.04

Do the same for `UCCCGC` please
1.92
